Each item that follows carries a reported protease stability score.
assay info: protease stability score; higher = more stable; yeast display proteolysis, trypsin and chymotrypsin;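 note: relative to predicted unfolded state with 0 unfolded-like and 1 meaning tenfold more protease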

sequence text	protease stability score
HEEKHLMDEALELIKYFTETGDERQLTEYADPNVRIDIDGQRFHGREDWEELVREWNSRFKNLKFNFREIDVQGEFIHTRGELNVNGKRFDVRIVSDKINGRWILHSIHFE	1.58
REEEEYRHHVLRRWLEIWETGDEEAEAKNVDPNARMHVNGVDLHGRETIIHFLEEYMRKVKGVQERNDKVHLQGEFTHLTGRVLINGRWKEVTIQLLIINGRHHYLRIIIE	0.898
SEDEEKATEFFRLLVDNWLTGDEENVERLLDPRVRVLVGDKMIHGRHLSARLESEFLKRIPNLRIRFHLHDVRTYGDKAHLDIIIDIHFNGVDIHIESELVVVKIDGRWLFKEERRK	0.276
SENEETAEDVIELVIEAWVTGDEDLFLSLLDPRVRLEVNGVHHHGRERVLEEIIKNLETLGVDHIEIRIREIKLIGEWVEIHGELIYRYNGVHERRDVEIIAFKFNGRWVLRSLRVR	1.82
DEEENMAEWAIRLMKHVIETGNFEEFLRLFDPNTRMHVNGVESHGRERSSKVLKEWLEIMGVDHLKVRDEKFSVQGNKLHIHLDTRTEQGDKEIETHIEVISYKIDGRWRQKEIRFEVR	1.69
EEDEEHIRKVIETFREMSETGDEDWSERMADPNARLIVGNKEFHGRERFNEWNRELTERIDHFEVRIRDFEIQGDKLILHVRITIIINGKDIETESHIIMKKVDGRWFMHSLHHK	0.752
DEREEFIHIAIHLLIHVDRTGDEDTYRKMMDPTTKLEVNGVKYIGRQEVIKFLRHIRIDSQDIKRWELVGDKVDLDVHVDGDVNGRRVREDRQIHLWKVDGRWVLEKIEYK	0.955
DELRKESEDLVRILIEIFHTGDEDVFKRMADPHVRLIAENRIVVGRDLVSRFFRHLLEKYPNVTDHVDVRRIILVGDWLHIDLRIDIEIGDKRHEHDVKIHVRKIDGRWVITEIHVK	1.85
HEEKENIEQFMRDLLHNWTTGNFEKIKEFLDPNTRIDWNGKDIHGRETESEEVKKYGIDHMSIILRHHTVQGDYAHIDTEIKIDINGRKIHIDARIDLLKINGRWVQKHVLYL	1.3
DEDERLAEEAVKLLIEINRTGDEDLFERNIDPNAQSDINGRRLHGMEQISEFLLRIKNIKLQPRHVDVQGDKMRVEGHLHINGQTHEVRWFVTKINGVWLITEIRVH	1.12
DKEREHLKQLAEIIIHLWHTGDEEILMHLADPNTRLIIEWNGQESQYHGREEMYTIIRRIYEELGADHIHIEDHDVQGDKVIIHSRLEQGDKRVELHLIVVFVNGRLKEMHIHINDK	2.34

* * *

assay info: protease stability score; higher = more stable; yeast display proteolysis, trypsin and chymotrypsin;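 note: relative to predicted unfolded state with 0 unfolded-like and 1 meaning tenfold more protease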

sequence text	protease stability score
DDKDEILLKLAKIVFENELTGDEESLEHLFDPNTRRIVNGKELVGWELISKYWKEQKKEMRVELRLRRHDIQGDKTRVRGEEILEIGEFKLILDVEITIVVINGRFTRIEIRVK	0.185
TEDEKVMKEAVEIQIHMFRTGNWDSLHKLVDPNARLDVDGREFHGREDFVRFIKKEAHEARVEDVIFRHVTTQGDKIVTHFDVRGVINGVEEIRKVTVFLRKINGRWLIESEEID	0.737
DEEDHLMKHASEMFLHVMKTGDEDTLRRLVDPHVRLDWNGRKWHGRETVTRIIVENIHELGIDHIHLNHFEIYNGQADTNIEVRYNGKREEYHIHMHKVNGRWTVKSIHVTEE	1.5
SEEREEFEHWAKLVVHLLLTGNWEDFVKLLDPDTRFRDEDEETVGREEVEKAVNRLLDRVDHIKSVHIRHLDVINGRAFMHGQLVGHVDGRETHTEVRIKLVVVNGRIKSLQIDYK	1.99
DEIDELMEMMARILIRLWQTGDEETWSRLADPDVRVTIGEFHTHGMERALLIIQEIRRHWRIHHIHIHDMRVFENRSRVNGKVDGEIDGQKDVRETRIEVVLIDGRLQEVRVKTK	0.91
DENTRLRREAFRIERKTWKTGDERLLEENADPDAKYDVDGKDLHGWREVVHFLDDFLKRFGFDHFEVKEIRVQGEKIIIDGRVEVNGRVFETRVIFTKFDGQWSVQSLQMR	0.444
REEDHRSRHLSELWIHLWETGDEETMKKLADPNMRINVNGQEFHGREQATRHIHEFLEKFKNVRLHVENIRIQGEKILIISRAEVDGQELEIHIELIIVDGRIEEVNLHVYRR	1.46
SEERSRVLHYLSLFIHFLETGDWKALYELMDPDVRIHVGDFELHGRHIFVRHLRDLGIKHVEESIRVRRMILIDGVIHMDGHLERHLIVGDKRVDERHEVHEVILKVDGKWFVHSIHVK	1.14
SEEEEKFHRFYKLLLEMILTGNWKEVWDLMDPNARLDVIIGDKSIHNHGWKVILEFMREIRIRHVHIKHMEVYNGRIHLDEHRDIHFNGRDIRSDVIIHAVVIDGRFHHERIEFL	0.751
SEMEEVYKRWVDLFRHAMDTGNEDLHLHLLDPHVRININGVELIGRDDDRDHLERLRKELGVSRFEMRVRIRDVDIQGDKIRSETEFTVIFNGREIIIKTRLILEKVNGRWILRSLEYN	1.39
SEKEKLSKDLTRLLLEIIMTGDWKALSDNMDPEARQDIGDKHIVGREIISQFKMELDEEAGFKHSEIQRIRIIGDKIEMDVHVDQGDKHHTVHIIVIIVNGRIKHVEVRIR	2
SEEDKKVEEAIKYLYSFLKTGDEHEVEDMIDPHVRIDVNGKNVHGWEEAFRWTVEHMKKLGVERFEVEIKDVHKQGNYVRVLGHSRFNGKEYEIEIILIKVNGRWIIKSHRIH	1.64
DEEERALIVLLLLFEESMRTGDPRLIKELMDPHMRLRFENRHYHGRDEFMEWFKQVDHIFIDRVNIRDVRLIGEWVRIDVEILGTHEQGDKQFEFRRRTHLVVRKVDGRWIMHHVEIR	1.64
SEEERDIRHSIEMLFYYFETGDWREWERLADPRARLIIGEKEHHGREELSRSLKELLDRLGVDHYEIKDKRSEIIDGRVNLHVRGHLHVNGRNQHVIVIMVAIKIDGRWLLESLEIRLH	1.3
SEEDKHLLHLMHLFLHWFDTGDEEQFWHYADPHVRMSVNGVHLHGRETVMRQISRTLKEWRVDDRRIHDSHTVNGVVHQDGRVDGEFNGKRDTREYYLIIVIFNGRIHSVEIHIK	1.46
DEETELTERAIEESKHNMETGDEDRLIELIDPNVKVEIGDKTFHGWEELMRWWHELGIKHVHLEFHDVKHFNGRIEVDGRLHIDVNGRTILLRVELYFQKINGQWFKESIHIK	1.67
SDIEDESEKFVRMFLHSYETGDWKSLREMFDPNARTIIGDKHTHGRELAVELWEDLFKRLGIKHIEVTHVHIRVINGRIDVRIEVHLNQGEFRYHIIIIVHVTKFNGVWLLTEFRIEEK	1.27
SKEEKDYWEFAEIWISDLLTGDEDLRKHLHDPDVRYHYHQGDKTFETHGMEEVLKLDKDLWRRLGVKHLEIHRVEVQGDKIHLDARLQVGDKSTEVHILLIVVNGKVKHIHIFVH	1.2
SEEEEFAERLVRMFEEELATGDEHKLQRLLDPHVKVEINGREIIGREEWTNHLDHIRLELHDTKLREVRVQGDKIHVHGKTDIIIKVGDKSERHHVEVLFIIKKINGRWILERVHVR	1.13
SEDEQLAREAIERLLQDFSTGNFERLMEMVDPNVRWEVGDFVSHGRENWSEHFRTYLEKMGFKHVNVRLKHIEVIGNKVIVHSEIIINVDGQELRMQSSSHVVKINGRWVLRSESHL	2.06
SEEEKELEEALKIQEEFWRTGDEHSLRELADPHARVHIDGRDLHGREFWSMLSNQLRIEHIEVKSVELVDGRLEADVHVTGRYNGRDVKTRMRLEIVKINGVWYLESTEIN	0.407
SEEEHISERAMELLSESIRTGNEHLISKLADPHTRMLYGDKELHGRSRWSEWASRVKNMRFETHEVRVVGDKIRSDVRSNFDGRLHIEHLYILKIDGRWVLDKIEIE	0.246

* * *

assay info: protease stability score; higher = more stable; yeast display proteolysis, trypsin and chymotrypsin;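 note: relative to predicted unfolded state with 0 unfolded-like and 1 meaning tenfold more protease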
measurement kind: protease stability score

sequence text	assay result
SEEHRKVEEFARHWLHNFQTGDFRRFYELVDPNVRLRQGDWEFHGREIVAEWLFVHLEHARIDDYKVNHVENYNGRSIIDSEIHGEINGRRDITRVEIILIIINGRVHYVEIRIR	2.31
DEDHRDAQRLVEHWINVFETGDEEQIEKLLDPNARVIVDGRHVHGRSSVLKFIVDLVREMRVELRLKDLSVVDGRVHVKMEMRIEINGRREETEVDINAEKVDGVWRFKEMFVI	2.47
SEEEDYMRELAERFLHAFITGDWQFIYKMFDPRVRWNVDGQNFVGREQLVHHLEKIKREMRVRHFELKDIKIIDGVSFINGRVDTTYGDKSSEHEVHISLVLIDGRVKHVQIRLE	2.34
